# Test system: ACHN renal
# measurement protocol: NCI tumour cell line growth inhibition, 48 h
*1 amine or outer side, *2 acyl side, *3 side chain or, on linkers, in order; H or OH if unused. Where a SMILES comes first, the peptide text is derived from it. Bridges are numbered along the chain shown (N, C = ends). [ ]: non-standard residue; d: D form. The star is where a group is joined. X59 = COc1c(N[*:1])cccc1C(=O)O[C@H](C(=O)[C@H](C)C(=O)[*:2])C(C)C; X58 = CC(C)C[C@H](C(=O)[*:2])C(C)C(=O)C1CCCN1[*:1]; NMeY = CN[C@@H](Cc1ccc(O)cc1)C(=O)O; Boc = CC(C)(C)OC(=O)*; Lac = C[C@H](O)C(=O)O; Bn = c1ccc(C*)cc1
I'd be grateful if you could share measured TGI for these entries.

COC(=O)C(CC(C)C)NC(=O)CNC(=O)C(Cc1ccc(OCc2ccccc2)cc1)NC(=O)C(COCc1ccccc1)NC(=O)OC(C)(C)C (stereo unspecified) (Boc-S(Bn)Y(Bn)GL-OMe; configuration not given here); > 100 µM

Parameter requested: TGI. Apply to each item below.
1. CN1C(=O)C(C#N)C2C[C@@]1(C)Oc1ccccc12 (stereo partly specified)
2. COc1ccc(C[C@H]2C(=O)O[C@H](C)[C@H](NC(=O)[C@@H](CC(C)C)C(C)C(=O)C3CCCN3C(=O)[C@H](C)O)C(=O)Nc3cccc(c3OC)C(=O)O[C@@H](C(C)C)C(=O)[C@H](C)C(=O)N[C@@H](CC(C)C)C(=O)N3CCC[C@H]3C(=O)N2C)cc1 (stereo partly specified) (H-[Lac][X58]T[X59]LP[NMeY](Me); ester 3-C)
3. CC1(C)CC2C(/C1=N/O)C1(C)CCCC2(C)C1O (stereo unspecified)

Out:
> 100 µM
> 12.5 µM
> 100 µM

Items follow; give TGI for each.
1. C=C1C(=O)O[C@H]2[C@H]1CC/C(COC(=O)C(=O)c1c[nH]c3ccc(Cl)cc13)=C\CC[C@@]1(C)O[C@@H]21
2. CN(C)c1cccc(/C=C(\C#N)c2ccccc2)c1

Out:
1: 2.7 µM; 2: > 100 µM
